test system: HCT-116; assay: Cytotoxicity against human HCT-116 cells assessed as reduction in cell growth measured after 72 hrs by MTT assay; type: functional, cell-based; settings: HCT-116, 72 h
A collection of molecules and their measured pIC50
# pIC50 is unitless: minus log10 of the molar concentration; print number only

molecule	pIC50
CC(C)=CCC/C(C)=C/CC[C@@](C)(O)[C@@H]1CC[C@H]2[C@@]1(C)CC[C@H]1C(C)(C)[C@@H](O)CC[C@]21C	4.39

Given the molecule `CC(C)=CCC[C@@](C)(O)[C@H]1CC[C@]2(C)[C@@H]1CC[C@@H]1[C@@]3(C)CC[C@H](O)C(C)(C)[C@@H]3CC[C@]12C` , write its reported pIC50.
4.40

Note pIC50 for the molecule shown: CC(C)=CCC/C(C)=C/CCC(C)(O)[C@H]1CC[C@H]2[C@@]1(C)CC[C@H]1C(C)(C)[C@@H](O)CC[C@]21C (stereo not given in full)
4.77

Return the recorded pIC50 value; entry: `CC(C)=CCC/C(C)=C/CC[C@@](C)(O)[C@@H]1CC[C@H]2[C@@]1(C)CC[C@H]1C(C)(C)[C@@H](O[C@@H]3O[C@H](CO)[C@@H](O)[C@H](O)[C@H]3O[C@@H]3O[C@H](CO)[C@@H](O)[C@H](O)[C@H]3O)CC[C@]21C`
4.41

---

system: HCT-116; experiment: Cytotoxicity against human HCT-116 cells assessed as reduction in cell growth measured after 72 hrs by MTT assay; type: functional, cell-based; settings: HCT-116, 72 h
value-type: IC50

Example compounds with recorded IC50:
1) C=C(C)[C@@H]1CC[C@]2(C)CC[C@]3(C)[C@H](CC[C@@H]4[C@@]5(C)CC[C@H](O)C(C)(C)[C@@H]5CC[C@]43C)[C@@H]12 > 50 µM
2) C=C(CC/C=C(\C)CCC=C(C)C)[C@H]1CC[C@H]2[C@@]1(C)CC[C@H]1C(C)(C)[C@@H](O)CC[C@]21C > 50 µM

Note IC50 for the compound shown: `CC(C)=CCC/C(C)=C/CC[C@@](C)(O)[C@@H]1CC[C@H]2[C@@]1(C)CC[C@H]1C(C)(C)[C@@H](O[C@@H]3O[C@H](CO)[C@@H](O)[C@H](O)[C@H]3O)CC[C@]21C`
28 µM

For the compound `C=C(CC/C=C(\C)CCC=C(C)C)[C@@H]1CC[C@H]2[C@@]1(C)CC[C@H]1C(C)(C)[C@@H](O)CC[C@]21C` , give its reported IC50.
> 50 µM

---

The following compounds are listed with their measured inhibition at 10 µM values.
test system: RAW264.7; assay: Antiinflammatory activity in LPS-induced mouse RAW264.7 cells assessed as inhibition of TNF-alpha production at 10 uM incubated for 1 hr followed by LPS-stimulation and measured after 24 hrs by ELISA analysis relative to control; format: functional; details: time 25 hrs
Your answer should be a plain number; it is taken to be in %.

compound	value-type	measured-value
CC(C)=CCC/C(C)=C/CC[C@@](C)(O)[C@@H]1CC[C@H]2[C@@]1(C)CC[C@H]1C(C)(C)[C@@H](O[C@@H]3O[C@H](CO)[C@@H](O)[C@H](O)[C@H]3O[C@@H]3O[C@H](CO)[C@@H](O)[C@H](O)[C@H]3O)CC[C@]21C	inhibition at 10 µM	30
CC(C)=CCC/C(C)=C/CC[C@@](C)(O)[C@@H]1CC[C@H]2[C@@]1(C)CC[C@H]1C(C)(C)[C@@H](O[C@@H]3O[C@H](CO)[C@@H](O)[C@H](O)[C@H]3O)CC[C@]21C	inhibition at 10 µM	39
C=C(CC/C=C(\C)CCC=C(C)C)[C@@H]1CC[C@H]2[C@@]1(C)CC[C@H]1C(C)(C)[C@@H](O)CC[C@]21C	inhibition at 10 µM	53
C=C(C)[C@@H]1CC[C@]2(C)CC[C@]3(C)[C@H](CC[C@@H]4[C@@]5(C)CC[C@H](O)C(C)(C)[C@@H]5CC[C@]43C)[C@@H]12	inhibition at 10 µM	34

For CC(C)=CCC/C(C)=C/CCC(C)(O)[C@H]1CC[C@H]2[C@@]1(C)CC[C@H]1C(C)(C)[C@@H](O)CC[C@]21C (stereo not given in full) , write its inhibition at 10 µM.
34

---

test system: PANC-1; assay: Cytotoxicity against human PANC-1 cells assessed as reduction in cell growth measured after 72 hrs by MTT assay; assay type: functional, cell-based; details: PANC-1, 72 h
value-type: IC50

Look over these answered cases.
1. C=C(CC/C=C(\C)CCC=C(C)C)[C@@H]1CC[C@H]2[C@@]1(C)CC[C@H]1C(C)(C)[C@@H](O)CC[C@]21C > 50 µM
2. C=C(CC/C=C(\C)CCC=C(C)C)[C@H]1CC[C@H]2[C@@]1(C)CC[C@H]1C(C)(C)[C@@H](O)CC[C@]21C > 50 µM
3. CC(C)=CC/C=C(/C)[C@H]1CC[C@]2(C)[C@@H]1CC[C@@H]1[C@@]3(C)CC[C@H](O)C(C)(C)[C@@H]3CC[C@]12C > 50 µM

Find the measured IC50 of `C=C(C)[C@@H]1CC[C@]2(C)CC[C@]3(C)[C@H](CC[C@@H]4[C@@]5(C)CC[C@H](O)C(C)(C)[C@@H]5CC[C@]43C)[C@@H]12` and report it.
> 50 µM

FYI, the data here is from ChEMBL document CHEMBL5370561.
